B1: Far upstream element-binding protein 1, residues 98 to 169; numbered along this chain, Q96AE4 (parent)
chain: RSVMTEEYKVPDGMVGFIIGRGGEQISRIQQESGCKIQIAPDSGGLPERSCMLTGTPESVQSAKRLLDQIVE

- Variants of: B1
- method_summary: abundance fitness (aPCA) (normalised: wild type 0, dead -1); higher = more abundant; growth selection in yeast, the domain comes from the species named
- run_parameters: Homo sapiens
measured_parameter: abundance fitness
Lab note: jot the number down without any unit.

M4G    -0.133
G45Q    -0.046
E72K    -0.129
K36C    -0.031
V10K    -0.584

Query: # get_value(readout='abundance fitness', item= A40G )
Reply: -0.039

Query: What about this variant? E58K
Reply: -0.035

Query: What about this variant? A40D
Reply: -0.039

Query: What about this variant? Q69R
Reply: -0.009

Query: What about this variant? G34V
Reply: -0.256

Query: What about this variant? E6M
Reply: -0.01
